- Assayed system: Retinal dehydrogenase 2 (Homo sapiens, UniProt O94788)
- Sequence (O94788 whole entry): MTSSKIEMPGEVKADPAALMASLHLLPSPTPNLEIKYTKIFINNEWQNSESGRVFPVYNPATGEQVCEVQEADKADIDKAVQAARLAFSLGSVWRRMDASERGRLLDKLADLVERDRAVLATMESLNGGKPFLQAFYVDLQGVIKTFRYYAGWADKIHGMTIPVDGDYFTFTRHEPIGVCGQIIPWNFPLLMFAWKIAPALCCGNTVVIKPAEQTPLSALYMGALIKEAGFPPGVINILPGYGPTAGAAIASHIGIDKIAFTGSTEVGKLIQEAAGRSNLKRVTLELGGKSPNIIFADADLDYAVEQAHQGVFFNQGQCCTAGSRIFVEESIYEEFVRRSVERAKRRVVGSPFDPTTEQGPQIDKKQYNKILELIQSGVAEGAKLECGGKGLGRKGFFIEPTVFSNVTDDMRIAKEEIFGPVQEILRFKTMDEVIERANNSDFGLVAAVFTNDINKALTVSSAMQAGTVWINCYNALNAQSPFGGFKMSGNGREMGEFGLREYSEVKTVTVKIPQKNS
- Test name: Inhibition of N-terminal His6-tagged recombinant human RALDH2 using RAL as substrate measured after 30 mins in presence of NADH by Morrison's plot analysis
Test readout: Ki

Query: Form field: reported Ki of CC1=C(/C=C/C(C)=C/C=C/C(C)=C/C(=O)C(Cl)Cl)C(C)(C)CCC1
Response: 64.3 nM

----------
- Assayed system: Aldehyde dehydrogenase 1A1 (Gallus gallus, UniProt P27463)
- Test name: Inhibition of N-terminal His6-tagged recombinant chick RALDH1 expressed in Escherichia coli BL21(DE3) cells using RAL as substrate preincubated for 20 mins followed by substrate addition and measured after 30 mins in presence of NADH by fluorescence assay
Test readout: pIC50
Answers are plain numbers, as −log10 of the molar value.

Query: Form field: reported pIC50 of CC1=C(/C=C/C(C)=C/C=C/C(C)=C/C(=O)C(Cl)Cl)C(C)(C)CCC1
Response: 6.36

----------
- Assayed system: Retinal dehydrogenase 2 (Gallus gallus, UniProt O93344)
- Test name: Inhibition of RALDH2 in choroidal cytosol fraction from 4 day recovering chick assessed as inhibition of ATRA synthesis pre-incubated for 20 mins followed by […] addition and measured after 30 mins by HPLC analysis
Test readout: pIC50
Answers are plain numbers, as −log10 of the molar value.

Query: Form field: reported pIC50 of CC1=C(/C=C/C(C)=C/C=C/C(C)=C/C(=O)C(Cl)Cl)C(C)(C)CCC1
Response: 7.27

----------
- Assayed system: Retinal dehydrogenase 2 (Gallus gallus)
- Test name: Inhibition of chick RALDH2 expressed in doxycycline-inducible HEK293 cells assessed as inhibition of ATRA synthesis after 24 hrs in presence of […]
- Assay type: cell-based
Test readout: pIC50
Numbers only, as −log10 of the molar value.

Query: State its pIC50 on Retinal dehydrogenase 2 (Gallus gallus): CC1=C(/C=C/C(C)=C/C=C/C(C)=C/C(=O)C(Cl)Cl)C(C)(C)CCC1
Response: 6.73

----------
- Assayed system: Aldehyde dehydrogenase 1A1 (Gallus gallus)
- Sequence (P27463 whole entry): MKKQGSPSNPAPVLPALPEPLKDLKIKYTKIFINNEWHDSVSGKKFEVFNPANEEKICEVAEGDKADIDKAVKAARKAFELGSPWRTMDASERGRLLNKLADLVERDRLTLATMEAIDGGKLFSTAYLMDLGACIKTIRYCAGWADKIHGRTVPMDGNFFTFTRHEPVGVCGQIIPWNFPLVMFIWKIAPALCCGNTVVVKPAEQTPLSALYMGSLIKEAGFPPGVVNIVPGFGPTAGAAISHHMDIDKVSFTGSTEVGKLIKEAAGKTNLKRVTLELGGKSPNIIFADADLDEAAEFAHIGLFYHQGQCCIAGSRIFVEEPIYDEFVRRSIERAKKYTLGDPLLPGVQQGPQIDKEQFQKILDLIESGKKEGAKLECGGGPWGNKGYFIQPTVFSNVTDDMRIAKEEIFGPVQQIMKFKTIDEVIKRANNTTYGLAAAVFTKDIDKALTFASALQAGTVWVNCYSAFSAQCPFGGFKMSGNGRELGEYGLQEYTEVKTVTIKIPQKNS
- Test name: Inhibition of N-terminal His6-tagged recombinant chick RALDH1 expressed in Escherichia coli BL21(DE3) cells using RAL as substrate measured after 30 mins in presence of NADH by Morrison's plot analysis
Test readout: pKi
One number for each entry, as −log10 of the molar value.

Query: Form field: reported pKi of CC1=C(/C=C/C(C)=C/C=C/C(C)=C/C(=O)C(Cl)Cl)C(C)(C)CCC1
Response: 6.71

----------
- Assayed system: Retinal dehydrogenase 2 (Gallus gallus)
- Test name: Inhibition of N-terminal His6-tagged recombinant chick RALDH2 expressed in Escherichia coli BL21(DE3) cells up to 500 nM using RAL as substrate preincubated up to 40 mins followed by substrate addition and measured after 30 mins in presence of NADH by fluorescence assay
Test readout: pKi
One number for each entry, as −log10 of the molar value.

Query: Form field: reported pKi of CC1=C(/C=C/C(C)=C/C=C/C(C)=C/C(=O)C(Cl)Cl)C(C)(C)CCC1
Response: 6.89

----------
- Assayed system: UniProt P05091
- Sequence (P05091 whole entry): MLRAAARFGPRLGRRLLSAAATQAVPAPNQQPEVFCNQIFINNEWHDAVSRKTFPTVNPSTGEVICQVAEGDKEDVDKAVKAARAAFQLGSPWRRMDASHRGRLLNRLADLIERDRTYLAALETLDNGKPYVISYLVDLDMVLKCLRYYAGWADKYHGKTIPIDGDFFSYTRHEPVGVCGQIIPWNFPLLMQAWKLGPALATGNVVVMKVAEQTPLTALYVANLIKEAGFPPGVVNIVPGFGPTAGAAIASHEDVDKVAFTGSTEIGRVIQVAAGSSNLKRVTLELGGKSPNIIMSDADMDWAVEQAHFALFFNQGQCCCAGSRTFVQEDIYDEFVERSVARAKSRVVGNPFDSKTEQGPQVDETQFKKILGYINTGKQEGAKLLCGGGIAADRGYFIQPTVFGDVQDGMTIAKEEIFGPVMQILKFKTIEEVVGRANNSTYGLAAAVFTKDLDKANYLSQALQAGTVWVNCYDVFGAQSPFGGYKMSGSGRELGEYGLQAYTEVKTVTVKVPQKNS
- Test name: Inhibition of N-terminal His6-tagged recombinant human mitochondrial ALDH2 using propionaldehyde as substrate preincubated for 20 mins to 1 hr followed by substrate addition and measured for 5 mins in presence of NADH by spectrophotometric assay
- Condition set: read-out: IC50
Test readout: IC50 (nM)
Give bare numbers, in nM.

Query: State its IC50 on UniProt P05091: O=C(NCCCCCCCCNC(=O)C(Cl)Cl)C(Cl)Cl
Response: 229

----------
- Assayed system: Retinal dehydrogenase 2 (Gallus gallus, UniProt O93344)
- Sequence (O93344 whole entry): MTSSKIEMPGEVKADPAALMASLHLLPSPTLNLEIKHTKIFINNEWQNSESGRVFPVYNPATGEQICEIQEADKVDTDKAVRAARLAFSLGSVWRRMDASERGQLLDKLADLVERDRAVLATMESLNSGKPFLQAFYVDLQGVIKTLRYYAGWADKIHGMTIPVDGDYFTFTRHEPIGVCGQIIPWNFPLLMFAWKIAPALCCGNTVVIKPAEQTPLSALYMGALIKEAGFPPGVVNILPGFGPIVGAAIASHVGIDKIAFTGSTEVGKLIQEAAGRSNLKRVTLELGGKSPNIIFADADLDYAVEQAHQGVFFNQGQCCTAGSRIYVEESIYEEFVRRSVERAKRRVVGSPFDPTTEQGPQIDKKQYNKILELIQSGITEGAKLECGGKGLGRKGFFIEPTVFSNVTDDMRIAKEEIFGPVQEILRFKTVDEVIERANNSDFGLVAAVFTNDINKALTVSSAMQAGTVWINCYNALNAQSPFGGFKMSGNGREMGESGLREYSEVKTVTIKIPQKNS
- Test name: Inhibition of RALDH2 in living intact choroid isolated from 4 day recovering chick eyes assessed as inhibition of ATRA synthesis after 24 hrs in presence of […]
Test readout: pEC50
Numbers only, as −log10 of the molar value.

> print(dat)
                                smiles.text  test.readout  data.value
1  CC1=C(/C=C/C(C)=C/C=C/C(C)=C/C(=O)C(Cl)Cl)C(C)(C)CCC1         pEC50        6.92

Now consider the entry below.
Query: Form field: reported pEC50 of O=C(NCCCCCCCCNC(=O)C(Cl)Cl)C(Cl)Cl
Response: 7.35

----------
- Test name: Inhibition of N-terminal His6-tagged recombinant chick RALDH3 expressed in Escherichia coli BL21(DE3) cells using RAL as substrate measured after 30 mins in presence of NADH by Morrison's plot analysis
- Set-up: species or system Gallus gallus
Test readout: pKi
One number for each entry, as −log10 of the molar value.

Query: Form field: reported pKi of CC1=C(/C=C/C(C)=C/C=C/C(C)=C/C(=O)C(Cl)Cl)C(C)(C)CCC1
Response: 8.17

----------
- Assayed system: Retinal dehydrogenase 2 (Gallus gallus, UniProt O93344)
- Sequence (O93344 whole entry): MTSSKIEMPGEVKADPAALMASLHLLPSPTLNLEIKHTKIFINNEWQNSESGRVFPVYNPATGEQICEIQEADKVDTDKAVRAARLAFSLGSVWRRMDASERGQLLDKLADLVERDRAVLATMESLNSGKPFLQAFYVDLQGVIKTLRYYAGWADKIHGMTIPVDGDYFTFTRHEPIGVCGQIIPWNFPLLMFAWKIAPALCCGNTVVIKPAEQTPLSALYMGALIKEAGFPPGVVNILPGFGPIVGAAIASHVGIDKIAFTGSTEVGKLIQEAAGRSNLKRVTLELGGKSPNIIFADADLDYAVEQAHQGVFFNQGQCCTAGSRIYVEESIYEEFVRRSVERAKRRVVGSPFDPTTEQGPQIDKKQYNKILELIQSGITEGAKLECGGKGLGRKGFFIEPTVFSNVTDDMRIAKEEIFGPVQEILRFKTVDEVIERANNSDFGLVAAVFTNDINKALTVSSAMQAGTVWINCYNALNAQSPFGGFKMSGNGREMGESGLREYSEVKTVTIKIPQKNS
- Test name: Inhibition of N-terminal His6-tagged recombinant chick RALDH2 expressed in Escherichia coli BL21(DE3) cells using RAL as substrate measured after 30 mins in presence of NADH by Morrison's plot analysis
Test readout: Ki
Form field: result (number plus unit)

Query: Form field: reported Ki of CC1=C(/C=C/C(C)=C/C=C/C(C)=C/C(=O)C(Cl)Cl)C(C)(C)CCC1
Response: 5.1 nM
